test: Quantitative highthroughput screen to assess conditional lethalithy of P12 Ichikawa cells grown in RPMI1640 with dialyzed fetal bovine serum (RPMI+ds) (AID 1963880); details: ATP luminescence, 48 h; P12-Ichikawa viability; series mostly up to 45.8 µM; note: nearly all actives have a fitted effect of over 35% in size
Records with an inconclusive call do not appear. Calls of active or inactive are those of the source. Calls come from the whole dose curve; as a rule, active = well fitted cell-killing curve with a large enough effect; inconclusive = small, poorly fitted or top-dose-only effect; inactive = flat fitted curve, though single readings scatter.
reportedMetric: outcome

Fc1ccc(Cl)cc1-c1nc(Nc2ccncc2)c2nccnc2n1    inactive
CC(=O)N[C@H]1[C@@H]([C@H](O)[C@H](O)CO)OC(C(=O)O)=C[C@@H]1N=C(N)N    inactive
CC1(C)[C@H](O[C@H]2O[C@H](C(=O)O)[C@@H](O)[C@H](O)[C@H]2O[C@@H]2O[C@H](C(=O)O)[C@@H](O)[C@H](O)[C@H]2O)CC[C@@]2(C)[C@H]1CC[C@]1(C)[C@H]2C(=O)C=C2[C@H]3C[C@@](C)(C(=O)O)CC[C@]3(C)CC[C@]21C    inactive

====

experiment: Quantitative highthroughput screen to assess conditional lethalithy of SEM cells grown in RPMI1640 with dialyzed fetal bovine serum (RPMI+ds) (AID 1963884); settings: SEM B-ALL cells, RPMI+dialyzed FBS, CellTiter-Glo viability, 48 h; series mostly up to 45.8 µM; note: nearly all actives have a fitted effect of over 35% in size; note: potency is the fitted concentration of half-maximal effect
Records with an inconclusive call do not appear. Calls of active or inactive are those of the source. Calls come from the whole dose curve; as a rule, active = well fitted cell-killing curve with a large enough effect; inconclusive = small, poorly fitted or top-dose-only effect, or effect the other way; inactive = no such curve, though single readings can be large or run the other way.
reportedMetric: Potency

Clc1cccc(-n2nnnc2NCc2ccccc2Oc2ccccn2)c1Cl    inactive
CC(CCc1ccc(O)cc1)NCCc1ccc(O)c(O)c1 (stereo unspecified)    20.9 µM (active)
CCc1c2c(nc3ccc(OC(=O)N4CCC(N5CCCCC5)CC4)cc13)-c1cc3c(c(=O)n1C2)COC(=O)[C@]3(O)CC    1.48 µM (active)
Nc1nc2c(c(=O)[nH]1)N(C=O)[C@H](CNc1ccc(C(=O)N[C@@H](CCC(=O)O)C(=O)O)cc1)CN2    inactive
CC(=O)O[C@H]1C[C@@H]2CC[C@H]3[C@H]4C[C@H]([N+]5(C)CCCCC5)[C@@H](OC(C)=O)[C@@]4(C)CC[C@@H]3[C@@]2(C)C[C@H]1N1CCCCC1    inactive
COc1ccc(C=Cc2cc(OC)c(OC)c(OC)c2)cc1NC(=O)[C@H](N)CO    0.0296 µM (active)
COc1cc2c(cc1-c1c(C)noc1C)ncc1[nH]c(=O)n([C@H](C)c3ccccn3)c12    1.48 µM (active)
CCN(CC)CCn1c(=O)c(Cc2ccc(OC)cc2)nc2ccccc21    inactive
O=C(CCCCCCC(=O)Nc1cccnc1)NO    6.62 µM (active)
CC(C)(C)C(=O)Oc1ccc2c(c1)nc(NC(=O)c1cccc([N+](=O)[O-])c1)n2CCCO    inactive
COc1cnc(NS(=O)(=O)c2ccc(N)cc2)nc1    inactive
CCOC(=O)N1CCN([N+]([O-])=NOc2ccc([N+](=O)[O-])cc2[N+](=O)[O-])CC1    4.69 µM (active)
COC1CCC(C(=O)c2ccc3nc4c(cc3c2)CCCO4)CC1 (stereo unspecified)    3.32 µM (active)
O=C(O)CCCCCC(=O)NN=C1CCCC1    inactive
Cn1cc(C2=C(c3c4n(c5ccccc35)CCC(CN)C4)C(=O)NC2=O)c2ccccc21 (stereo unspecified)    11.8 µM (active)
NC(=O)c1ncn([C@@H]2O[C@H](CO)[C@@H](O)[C@@H]2O)c1O    inactive
Cc1ccc(C(=O)Nc2cccc(C(F)(F)F)c2)cc1-c1ccc2nc(NCCN3CCOCC3)ncc2c1    4.18 µM (active)
COc1ccccc1OCC(O)COC(N)=O (stereo unspecified)    inactive
Oc1ccc(C=Cc2cc(O)cc(O)c2)cc1    20.9 µM (active)
C[C@@]1(c2cc(-c3cncnc3)c(F)cc2F)CCSC(N)=N1    16.6 µM (active)
COc1cccc(N(C)C(=S)Oc2ccc3c(c2)CCCC3)n1    inactive

Every entry's value here was drawn from PubChem BioAssay (NCATS).
